target: Sodium channel protein type 1 subunit alpha (Homo sapiens); test: Activation of human Nav1.1 expressed in T-Rex-CHO cells assessed as change in decay time constant of channel currents at 10 uM at holding potential of -120 mV by automated patch-clamp electrophysiology assay relative to control; type: cell-based
Reported endpoint: Activity (%)

Would you please look over these solved cases?
CC(C)c1ccc(NC(=O)c2c(-c3ccc(Cl)cc3)cncc2N2CCOCC2)cn1 ... 699
CC(C)c1ccc(NC(=O)c2c(-c3ccc(Cl)cc3)ncnc2N2CCCCC2)cn1 ... 105

I: CC(C)c1ccc(NC(=O)c2c(-c3ccc(Cl)cc3)ncnc2N2CCC2)cn1
II: CC(C)c1ccc(NC(=O)c2c(-c3ccc(Cl)cc3)ncnc2N2CCC(F)(F)C2)cn1
**Query** Which gives the smaller Activity number: I or II ? Response format: the label of the selected entry.
**Result** I

* * *

experiment: Fraction unbound in mouse brain at 30 mg/kg, ip measured at 1 hr by LC-MS/MS analysis; format: ADME, organism-based
Reported endpoint: fraction unbound at 1 h
Please state the value as a number alone, without comment.

**Query** Look up fraction unbound at 1 h: `CC(C)c1ccc(NC(=O)c2c(-c3cc(F)ccc3F)ccnc2N2CC[C@H](F)C2)cn1`
**Result** 0.029

* * *

target: Sodium channel protein type 1 subunit alpha (Homo sapiens) (UniProt P35498); test: Activation of human Nav1.1 expressed in T-Rex-CHO cells assessed as change in decay time constant of channel currents at 1 uM at holding potential of -120 mV by automated patch-clamp electrophysiology assay relative to control; type: cell-based
Reported endpoint: Activity (%)

Would you please look over these solved cases?
CC(C)c1ccc(NC(=O)c2c(-c3ccccc3)ncnc2N2CC[C@H](F)C2)cn1 ... 102
CC(C)c1ccc(NC(=O)c2c(-c3ccco3)ncnc2N2CC[C@H](F)C2)cn1 ... 86
CC(C)c1ccc(NC(=O)c2c(-c3ccoc3)ncnc2N2CC[C@H](F)C2)cn1 ... 80

a: CC(C)c1ccc(NC(=O)c2c(-c3ccc(Cl)cc3)ncnc2N2CC[C@H](F)C2)cn1
b: CC(C)c1ccc(NC(=O)c2c(-c3cc(F)ccc3F)ccnc2N2CC[C@H](F)C2)cn1
**Query** Which gives the smaller Activity number: a or b ? Response format: the label of the selected entry.
**Result** a
(a: 107%, b: 492%)

* * *

assay: Drug uptake in mouse plasma at 30 mg/kg, ip measured at 1 hr by LC-MS/MS analysis; format: ADME, organism-based
Reported endpoint: concentration at 1 h (ng/mL)
Quick note: give the figure in ng/mL, leave out the unit.

**Query** Look up concentration at 1 h: `CC(C)c1ccc(NC(=O)c2c(-c3cc(F)ccc3F)ccnc2N2CC[C@H](F)C2)cn1`
**Result** 968

* * *

molecular target: Sodium channel protein type 1 subunit alpha (Homo sapiens); experiment: Activation of human Nav1.1 expressed in T-Rex-CHO cells assessed as change in decay time constant of channel currents at 0.3 uM by Q-patch assay relative to control; assay type: cell-based
Reported endpoint: Activity (%)

CC(C)c1ccc(NC(=O)c2c(-c3cc(F)ccc3F)ncnc2N2CC[C@H](F)C2)cn1 ... 853

I: CC(C)c1ccc(NC(=O)c2c(-c3ccccc3F)ncnc2N2CC[C@H](F)C2)cn1
II: CC(C)c1ccc(NC(=O)c2c(-c3ccccc3)ncnc2N2CC[C@H](F)C2)cn1
III: CC(C)c1ccc(NC(=O)c2c(-c3ccc(Cl)cc3)ncnc2N2CC[C@H](F)C2)cn1
**Query** Rank by Activity (largest to smallest). To answer, arrange all of the labels according to the requested order.
**Result** I, II, III
(I: 711%, II: 255%, III: 170%)
